Test system: NCI-H460 lung
Test: NCI-60 one-dose screen, 48 h
Details: 10 µM unless noted
The panel holds about 83,000 compounds, 20% with a hit somewhere; the sample as a whole holds those more often. Active and inactive are the calls of the source. How the source made its calls: active means growth percent below 10; inactive means the rest.
Classes used: true = active, false = inactive

>>> print(df.to_string())
                                    compound  label
 0  COc1cc(-c2ncn(/C=C\C(=O)OC(C)C)n2)cc(C(F)(F)F)c1   true
 1  C=C1C(=O)O[C@H]2[C@H]1CC/C(Cn1cc(-c3cccc(Cl)c3)nn1)=C\CC[C@@]1(C)O[C@@H]21  false
 2  O=C(Nc1ccncc1)C(=O)c1cn(S(=O)(=O)c2ccc(Oc3ccccc3)cc2)c2ccccc12  false
 3  O=C(Nc1cccc(-n2cc(-c3ccncc3)c(-c3ccc(Cl)c(O)c3)n2)c1)Nc1cc(C(F)(F)F)cc(C(F)(F)F)c1   true
 4  Cc1nn(-c2ccc(Cl)cc2)c2ncnc(N/N=C/c3cccc([N+](=O)[O-])c3)c12  false
 5  COc1ccc(C(=O)N2NC(=O)/C(=C/c3ccccc3F)N=C2c2ccccc2)cc1  false
 6  COc1cc(-c2nn(-c3cccc(NC(=O)Nc4cc(C(F)(F)F)cc(C(F)(F)F)c4)c3)cc2-c2ccncc2)ccc1Cl   true
 7  CN(C)CCCN(c1nc(C(Cl)(Cl)Cl)ns1)c1nc(C(Cl)(Cl)Cl)ns1   true
 8    FC(F)(F)c1ccccc1-c1cn2c(ccc3ccccc32)n1  false
 9  COc1ccc(-c2nc(/C=C3/C(=O)Nc4ccc(F)cc43)c3ccccn23)cc1  false
10  C=C1C(=O)O[C@@H]2[C@@H]3O[C@@](C)(CC/C=C(\C)CCC[C@@H]2C)[C@H](O)C[C@@H]13  false
11  COc1cc(Cn2cc3c(c2)-c2oncc2CC3)cc(OC)c1OC   true
12  CC(C)(C)NCCC(O)c1cc2c(Cl)cc(Cl)cc2c2cc(C(F)(F)F)ccc12 (stereo not given)   true
13  Cc1ccc(-c2nc(C#N)c(S(=O)(=O)n3nc(-c4ccccc4)cc3N)o2)cc1  false
14  O=S(=O)(NCCCNc1nccc(-n2ccc3cccnc32)n1)c1cccc(C(F)(F)F)c1  false
15  COc1ccc(C2C=C(c3ccc(OC)c(OC)c3)N=C3SC=C(C)N32)c(Br)c1 (stereo not given)  false
16      C=C[C@@H]1C[C@H](O)Cc2c(C)cc(C)cc2N1  false
17  COc1ccc(CN2CCc3c(Sc4ccccc4)nc(N)nc3C2=O)c(OC)c1  false
18             O=C1c2ccccc2-c2ccccc2C1(Cl)Cl   true
19    COC(=O)c1cc2cc(-c3ccc(OC)cc3)cnc2[nH]1   true
20  Cc1cc(N)n(S(=O)(=O)c2oc(-c3ccccc3)nc2C#N)n1  false
21  COc1cc2c(c(OC)c1OC)-c1ccc(N)c(=O)cc1[C@@H](NC(C)=O)CC2   true
22  COc1ccc2c(c1)NC1=C(C(=O)OC1)C2c1cc(OC)c2c(c1)OCO2 (stereo not given)   true
23  O=C([O][Sn]([O]C(=O)c1ccccn1)([c]1ccccc1)[c]1ccccc1)c1ccccn1  false
24   Nc1cc2c([nH]c[n+]2CC#CCCl)c(SCC#CCCl)n1   true
25  COc1ccc(/C=C2\Oc3cc(OCCCN4CCCC4)ccc3C2=O)cc1  false
26  COc1cc(/C=C/C(=O)c2ccc(Nc3ncnc4cc(OC)c(OC)cc34)cc2)cc(OC)c1  false
27  Cc1ccc(-c2cc3nc(C(Cl)Cl)nc(-c4ccccc4C)n3n2)cc1  false
28  Cn1ccc(Nc2nccc(Oc3ccc(C(=O)Nc4cccc(F)c4)c(Cl)c3)n2)c1  false
29  COc1cc(-c2nn(-c3cccc(NC(=O)c4ccc(N5CCOCC5)c(C(F)(F)F)c4)c3)cc2-c2ccncc2)ccc1Cl   true
30  Brc1cccc(-c2cc(-c3ccc4c(c3)OCCCO4)[nH]n2)c1  false
31   COc1ccc2c(c1)[nH]c(=O)c1c3cccc(F)c3cn21   true
32  CN1CCN(Cc2ccc(NC(=O)c3cncc(C#Cc4cnc(N)c5ccncc45)c3)cc2C(F)(F)F)CC1   true
33         C=C[C@@H]1C[C@H](O)Cc2cc(F)ccc2N1  false
34                       CC(C)OC(=O)N1CCOCC1  false
35  CC1=C(C#N)C(=O)NC(C)C1 (stereo not given)  false
36  COc1cc(-c2nc(-c3nc4ccc(Cl)cc4[nH]3)cc3c2[nH]c2ccccc23)cc(OC)c1OC  false
37  Nc1nc(-c2ccccc2)c(CCCOc2ccc(NC(=O)CBr)cc2)c(=O)[nH]1  false
38  N=C(N)c1ccc(-c2ccc(-c3ccc4ccccc4c3)s2)cc1  false
39  CCOC(=O)C1CCNC(=O)C1=O (stereo not given)  false

* * *

Test system: OVCAR-4 ovarian
Assay: NCI-60 one-dose screen, 48 h
Details: 10 µM unless noted
About 83,000 compounds went through this panel and 20% of them were active in at least one assay; those are over-represented in the sample as a whole. Activity calls are given as the source filed them. The calls were made as follows: active = growth percent below 10; inactive = the rest.
Classes used: active, inactive

In [3]: df
Out[3]:
                                    molecule  target_or_test_system     label
 0  CN(C)c1nc2c(N)ncnc2n1C1OC(CO)C(O)C1O (stereo unspecified)        OVCAR-4 ovarian  inactive
 1  O=c1[nH]c2ccc(Br)cc2c2c1C(c1ccc(Cl)cc1)c1c(ncn3nc(-c4ccco4)nc13)O2 (stereo unspecified)        OVCAR-4 ovarian  inactive
 2  Clc1cc(Cl)c2nc(-c3ccc(-c4ccc(/C=N/NC5=NCCN5)cc4)s3)cn2c1        OVCAR-4 ovarian  inactive
 3     Cc1ccc(Nc2nnc(-c3ccc(Cl)cc3)o2)c(C)c1        OVCAR-4 ovarian  inactive
 4                 COc1cc(NCCCCCN)c2ncccc2c1        OVCAR-4 ovarian  inactive
 5  COc1cc(Cn2cc3c(c2)-c2oncc2CC3)cc(OC)c1OC        OVCAR-4 ovarian  inactive
 6  COc1ccc(S(=O)(=O)n2ccc(-c3ccc4c(c3)CCC(C)(C)O4)n2)cc1OC        OVCAR-4 ovarian  inactive
 7      N/C(=N\C(N)=N\c1nc2ccccc2s1)c1ccncc1        OVCAR-4 ovarian  inactive
 8  COc1ccc(CNCCCN2C(=O)c3ccc4c5c(ccc(c35)C2=O)C(=O)N(CCCNCCCCNCCCN)C4=O)c(OC)c1OC        OVCAR-4 ovarian    active
 9  Cc1nc2c3c(ncn2n1)Oc1c(c(=O)[nH]c2ccccc12)C3c1ccc(Cl)cc1 (stereo unspecified)        OVCAR-4 ovarian  inactive
10   O=[N+]([O-])c1ccc(/C=C/C2(CCl)OCCO2)cc1        OVCAR-4 ovarian  inactive
11  CCCCNC(=O)Oc1ccc(/C(=C(\C)c2ccccc2)c2ccc(OCCN(CC)CC)cc2)cc1        OVCAR-4 ovarian  inactive
12  O=C(/C=C/c1c[nH]c2ccccc12)c1ccc(O)c(CN2CCN(c3ccc(F)cc3)CC2)c1        OVCAR-4 ovarian  inactive
13  CC(=O)c1cc2c(N)c(C(=O)Nc3cccc4c3OCCO4)sc2nc1C        OVCAR-4 ovarian  inactive
14  C=CCn1c2ccccc2c2c3c(c4c5ccccc5n(CC=C)c4c21)C(=O)N(O)C3=O        OVCAR-4 ovarian  inactive
15  CCCCCCCCCCCC(=O)NCCC[N+](C)(C)CC(=O)[O-]        OVCAR-4 ovarian  inactive
16             O=C1c2ccccc2-c2ccccc2C1(Cl)Cl        OVCAR-4 ovarian    active
17  COc1cc2c(cc1O)CCN1C[C@@H](CC(C)C)[C@@H](O)C[C@@H]21        OVCAR-4 ovarian  inactive
18  O=C(Nc1cccc(-n2cc(-c3ccncc3)c(-c3ccc(Cl)c(O)c3)n2)c1)c1ccc(N2CCOCC2)c(C(F)(F)F)c1        OVCAR-4 ovarian  inactive
19  N#C/C(=C1C=C/C(=N/O)C(Cl)=C/1)c1ccc(Cl)cc1        OVCAR-4 ovarian  inactive
20  CC(C)(C)n1cc(-c2ccnc(NCCCNS(=O)(=O)c3ccccc3)c2)c(-c2cccc(O)c2)n1        OVCAR-4 ovarian  inactive

* * *

Tested on: SK-MEL-2 melanoma
Assay: NCI-60 one-dose screen, 48 h (100 = growth as untreated, 0 = no growth, -100 = all killed)
Conditions: 10 µM unless noted
Compounds without any hit were thinned out: in the full panel of roughly 83,000, 20% have a hit.
// reported growth per item
experimental endpoint: growth (%)

>>> df
                                   compound  quantitative_result
0  NC1=C(/C(N)=N/O)C(c2ccccc2)c2ccc3ccccc3c2O1 (centres undefined)                 44.7
1  Fc1ccccc1-c1nc(-c2nc3cc(Cl)c(Cl)cc3[nH]2)c2ccccn12                 81.5
2  S=c1[nH]nc(-c2cc3ccc2CCc2ccc(cc2)CC3)n1-c1ccccc1                  105
3  COc1cccc(-c2nc3sccn3c2-c2ccnc(NCCCNS(=O)(=O)c3ccc(C(F)(F)F)cc3)c2)c1                 65.7
4  CCOC(=O)c1c(/N=C2\SC(=O)/C(=C\C(=O)OC)N2NC)sc2c1CCN(C(=O)OCC)C2                 92.5
5  NC(=N\N=C/c1ccc(O)cc1)/C(N)=N\N=C/c1ccc(O)cc1                   59
6  Cc1cc(N/N=C/c2nc(-c3ccc(Br)cc3)oc2C)c2cc(Cl)ccc2n1                  110
7  O=C1c2c(Cl)c(Cl)c(Cl)c(Cl)c2C(=O)C2(Cl)CC=CCC12Cl (centres undefined)                -49.4
8  COC(=O)C1CCCN1C(=O)[C@@H]1CCCN1C(=O)[C@H](Cc1c[nH]c2ccccc12)NC(=S)Nc1cc(C(F)(F)F)cc(C(F)(F)F)c1 (some centres undefined)                 67.5

src = PubChem BioAssay (NCI)
